Molecular target: T1, CRBN, Q96SW2;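 further: pooled lentiviral library of zinc finger degron-EGFP fusions in mCherry-positive Jurkat cells, FACS-sorted after compound exposure, with degron abundance counted by next-generation sequencing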
T1 chain: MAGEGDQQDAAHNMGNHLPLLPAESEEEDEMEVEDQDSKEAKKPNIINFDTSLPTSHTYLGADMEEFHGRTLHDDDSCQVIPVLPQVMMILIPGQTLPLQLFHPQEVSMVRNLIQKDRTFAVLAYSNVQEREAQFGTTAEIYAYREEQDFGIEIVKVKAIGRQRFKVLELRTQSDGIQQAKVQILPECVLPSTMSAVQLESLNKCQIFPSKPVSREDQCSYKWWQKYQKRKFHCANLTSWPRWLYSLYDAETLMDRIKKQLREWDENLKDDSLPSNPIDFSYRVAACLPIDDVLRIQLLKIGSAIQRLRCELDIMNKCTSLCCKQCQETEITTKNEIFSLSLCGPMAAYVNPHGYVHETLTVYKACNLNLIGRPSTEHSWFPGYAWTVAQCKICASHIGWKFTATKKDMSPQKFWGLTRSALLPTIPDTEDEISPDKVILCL
Test: log2 fold change of degron read counts, EGFP-low vs EGFP+ sorted cells (limma voom), compound-induced degradation; higher = more compound-induced degradation of the degron-EGFP fusion; degrons are variants of IKZF1/3 zinc finger 2; compound dose not given here
Details: Jurkat; 18 h; compound: thalidomide
In all, about 8,300 sequences were measured (“log2 fold change of degron read counts, EGFP-low vs EGFP+ sorted cells (limma voom), compound-induced degradation”: median about -1.1, highest 2% from about 3.2 on). What follows is part of a selection rich in the highest values, with near analogues and random picks from the rest.
# binarize log2 fold change of degron read counts: threshold 1 inclusive, high side Fulfilled, low side Not fulfilled

Completed entries (count: 4):
>>> category_label("FMCEICGASFTQKGNLLRHIKL [46F_47M_49E_50I_52G_53A_54S_55F_67L_, Q9UKT9]")
"Fulfilled"
>>> category_label("FDCEICGASFTQKGNLLRHIKL [46F_47D_49E_50I_52G_53A_54S_55F_67L_, Q9UKT9]")
"Fulfilled"
>>> category_label("FGCEICGASFTQKGNLLRHIKL [46F_47G_49E_50I_52G_53A_54S_55F_67L_, Q9UKT9]")
"Fulfilled"
>>> category_label("FKCEICGASFTQKGNLLRHIKL [46F_47K_49E_50I_52G_53A_54S_55F_67L_, Q9UKT9]")
"Not fulfilled"

(Q) In plain terms: is recorded log2 fold change of degron read counts at least 1 for FNCPVCGASFTQKGNLLRHIKL [46F_47N_49P_50V_52G_53A_54S_55F_67L_, Q9UKT9] ?
(A) Not fulfilled

(Q) In plain terms: is recorded log2 fold change of degron read counts at least 1 for FCCEICGASFTQKGNLLRHIKL [46F_47C_49E_50I_52G_53A_54S_55F_67L_, Q9UKT9] ?
(A) Fulfilled

(Q) In plain terms: is recorded log2 fold change of degron read counts at least 1 for FTCPVCGASFTQKGNLLRHIKL [46F_47T_49P_50V_52G_53A_54S_55F_67L_, Q9UKT9] ?
(A) Fulfilled
